Attribution: the RNAGym collection of RNA variant scans (doi:10.1073/pnas.2313332121)

Reported values of polymerase ribozyme fitness (log ratio) for individual entries
B1: TPR 5TU (parent)
chain: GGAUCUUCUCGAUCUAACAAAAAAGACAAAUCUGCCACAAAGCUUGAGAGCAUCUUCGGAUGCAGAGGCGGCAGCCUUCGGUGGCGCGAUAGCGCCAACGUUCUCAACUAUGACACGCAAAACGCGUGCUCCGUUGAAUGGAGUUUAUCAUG

- Variants of: B1
- protocol notes: polymerase ribozyme fitness, log enrichment relative to wild type (log ratio); higher = more active; in vitro selection for triplet polymerase activity
This sample holds only a part of the variants without activity.
Returns: the value as a bare number; no unit string appended.

residue_change="C32U A40G C105A" reading=-3.89
residue_change="U61A G94U A106G" reading=-2.71
residue_change="C14A A41C C76U G84U" reading=-2.89

Item C10A U31G C35G G42C C69U G92A C95G G100A G143A has what recorded polymerase ribozyme fitness (log ratio)?
-3.74

Query A40C U134A next
-1.77

Query A115U U134C next
-1.19

Query U55G G83A C103U U135A next
-2.23

Query C114U C131U next
-1.64

Query U53G A119C A122C G141U next
-0.69

Query G48A U101G next
-2.26

Query C96U U144G next
-0.238

Query C76U G84A A119U U145G next
-2.68

Query A40C G62U A119U next
-0.408

Query C75U G86C A115U next
-2.41

Query A19U C57G next
-1.75

Query A47C G48A G124U next
-3.59

Query A17C G59A A60C G81C C95U C116U next
0.238

Query A24U A37U U82G next
-0.974

Query A22C A37C next
-0.165
